Target: T1, VEGFR-3-Fc (human, UniProt P35916 25-328)
T1 construct: domain: first three Ig domains; used as conditioned supernatant of 293T cells; also called VEGFR-3-Fc fusion protein; not shown: Fc fragment of the pIg vector
T1 sequence (looked up): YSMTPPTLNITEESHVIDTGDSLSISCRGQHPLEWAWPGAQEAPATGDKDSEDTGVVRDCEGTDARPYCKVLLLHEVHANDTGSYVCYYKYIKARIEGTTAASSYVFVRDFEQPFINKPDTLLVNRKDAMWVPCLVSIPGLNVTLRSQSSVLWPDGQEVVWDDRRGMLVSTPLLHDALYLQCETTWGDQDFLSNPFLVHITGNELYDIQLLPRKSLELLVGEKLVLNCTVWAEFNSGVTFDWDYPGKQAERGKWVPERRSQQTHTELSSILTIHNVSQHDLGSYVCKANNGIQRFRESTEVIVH
Test: receptor-Fc IP
QUANTITY KIND: binding result

Example entries and their recorded answers appear below.
12-9 (ligand) GQNHHEVVKFMDVYQRSYCHPIETLVDIFQEFGVATNTFFKPPCVSVYRCGGCCNDEGLECVPTEESNITMQIMRITVPLSQGPKPVTISFLQHNKCECRPKKD : binds
12-7 (ligand) GQNHHEVVKFMDVYQRSYCHPIETLVDIFQEFGVATNTFFKPPCVSVYRCGGCCNSEGLQCVPTEESNITMQIMRIKPHQGQHIGEMSFANHTSCRCMSKLD : binds
12-3 (ligand) GQNHHEVVKFMDVYQRSYCHPIETLVDIFQEFGVATNTFFKPPCVSVYRCGGCCNSEGLQCVPTEESNITMQIMRIKPHQGQHIGEMSFLQHNKCECRPKKD : no binding
82-9 (ligand) AHYNTEILKFMDVYQRSYCHPIETLVDIFQEFGVATNTFFKPPCVSVYRCGGCCNDEGLECVPTEESNITMQIMRITVPLSQGPKPVTISFLQHNKCECRPKKD : binds
12-13 (ligand) GQNHHEVVKFMDVYQRSYCHPIETLVDIFQEFGVATNTFFKPPCVSVYRCGGCCNDEGLECVPTEESNITMQIMRITVPLSQGPKPVTISFANHTSCRCMSKLN : binds
11-1 (ligand) GQNHHEVVKFMDVYQRSYCHPIETLVDIFQEYPDEIEYIFKPSCVPLMRCGGCCNDEGLECVPTEESNITMQIMRIKPHQGQHIGEMSFLQHNKCECRPKKD : no binding
82-13 (ligand) AHYNTEILKFMDVYQRSYCHPIETLVDIFQEFGVATNTFFKPPCVSVYRCGGCCNDEGLECVPTEESNITMQIMRITVPLSQGPKPVTISFANHTSCRCMSKLD : binds

// below: binding result requested for another binder
response.value for 72-7 (ligand) GQNHHEVVKSIDNEWRKTQCMPREVCIDVGKEFGVATNTFFKPPCVSVYRCGGCCNSEGLQCVPTEESNITMQIMRIKPHQGQHIGEMSFANHTSCRCMSKLD (field: binding result) = no binding

Reference source: patent US20050267024A1
